Test details: chemical genetic growth profiling, strain panel (AID 1159580);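 also: tested at 20 µM; growth read once vehicle control cultures reached saturation at 30 °C; 1 = growth at the plate median or of vehicle wells; lower values mean less growth of the strain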
Run parameters: S. cerevisiae deletion strains, growth OD, locus YGL253W, strain hxk2, hits give low values
Screen size: about 5,500 compounds; about 2,000 (36%) were called active. About 18% were inconclusive and are not listed. Some of the results follow.
Measurement type: normalized growth
Answer with a number only.

Example results:
Molecule: C[C@@H](N)[C@@H](O)c1ccccc1
normalized growth: 0.99
--
Molecule: Nc1cc(-c2ccncc2)c[nH]c1=O
normalized growth: 0.523
--
Molecule: COC(=O)CCCOc1ccc(Cl)cc1Cl
normalized growth: 0.965
--
Molecule: C[C@H](N)[C@H](O)c1cccc(O)c1
normalized growth: 1.01
--
Molecule: C[C@H](CCC(=O)O)[C@H]1CCC2C3C(CC[C@@]21C)[C@@]1(C)CC[C@@H](O)C[C@H]1C[C@@H]3O (stereo partly specified)
normalized growth: 1.02
--
Molecule: CC(CCC(=O)O)[C@H]1CCC2C3C[C@H](O)[C@@H]4C[C@H](O)CC[C@]4(C)C3CC[C@@]21C (stereo partly specified)
normalized growth: 1.02
--
Molecule: N#C/C(=C\c1cccc(O)c1)C(=O)O
normalized growth: 0.975
--
Molecule: CC(CCC(=O)O)[C@H]1CCC2C3C(C[C@H](O)[C@@]21C)[C@@]1(C)CC[C@@H](O)C[C@H]1C[C@H]3O (stereo partly specified)
normalized growth: 1.02
--
Molecule: CN(C)CCOC(=O)COc1ccc(Cl)cc1
normalized growth: 0.968
--
Molecule: O=C(O)c1ccccc1C(=O)Nc1ccc(S(=O)(=O)Nc2nccs2)cc1
normalized growth: 0.984

Notebook: Cc1ncc([N+](=O)[O-])n1CC(C)O (stereo unspecified) , normalized growth read as 0.981

Notebook: NS(=O)(=O)c1cc2c(cc1Cl)NC(C1CC3C=CC1C3)NS2(=O)=O (stereo unspecified) , normalized growth read as 0.995

Notebook: "O=C(O)CCCOc1ccc(Cl)cc1Cl" , normalized growth read as 0.939

Notebook: CN(C)CCOC(=O)C(c1ccccc1)C1(O)CCCC1 (stereo unspecified) , normalized growth read as 1

Notebook: NCC(CC(=O)O)c1ccc(Cl)cc1 (stereo unspecified) , normalized growth read as 0.966

Notebook: CC1CCC2(OC1)OC1CC3C4CCC5C[C@@H](O)CCC5(C)C4=CCC3(C)C1[C@@H]2C (stereo partly specified) , normalized growth read as 0.99

###

Readings of normalized growth for the listed compounds
Test details: chemical genetic growth profiling, strain panel (AID 1159580)
Run parameters: S. cerevisiae deletion strains, growth OD, locus YEL061C, strain CIN8, hits give low values
Out of some 5,500 compounds screened, about 2,000 (36%) were called active. About 18% were inconclusive and are not listed. Some of the results follow.
Answer with a number only.

Compound: CC(=O)c1ccc(-c2ccc(Cl)c(Cl)c2)o1
Measurement: 0.445
//
Compound: CN1CC(CNC(=O)OCc2ccccc2)CC2c3cccc4c3c(cn4C)CC21 (stereo unspecified)
Measurement: 0.992
//
Compound: COc1cc(C)c(C(=O)Oc2cc(C)c(C(=O)O)c(O)c2C)c(OC)c1C
Measurement: 1

Notebook: "Cc1cscc1S(=O)(=O)c1ccc(Cl)cc1" , normalized growth read as 0.98

Notebook: "c1ccc2c(c1)CN1CCCC1=N2" , normalized growth read as 1

Notebook: "CC(=O)Nc1ccc(C(F)(F)F)cc1Br" , normalized growth read as 0.967

Notebook: "Cc1c(S(=O)(=O)c2ccc(Cl)cc2)csc1C(=O)Nc1ccc(N2CCOCC2)c(Cl)c1" , normalized growth read as 1.03

Notebook: "CCC(=O)Nc1ccc(Cl)c(Cl)c1" , normalized growth read as 0.994

Notebook: "O=C(Nc1ccccc1)Nc1ccc(C(F)(F)F)cc1Br" , normalized growth read as 0.981

Notebook: COC(=O)CCC(=O)O[C@H]1CCC2(C)C(CCC3C2C(=O)[C@@H](O)C2(C)C3CC3OC4(CCC(C)CO4)[C@@H](C)C32)C1 (stereo partly specified) , normalized growth read as 1.01

Notebook: C=C1C2CCC3(C)C(c4ccoc4)OC(=O)CC13OC1CC(OC(C)=O)C(C)(C)C(CC(=O)OC)C12C (stereo unspecified) , normalized growth read as 1

###

Test details: chemical genetic growth profiling, strain panel (AID 1159580)
Run parameters: S. cerevisiae deletion strains, growth OD, locus YHR094C, strain hxt1, hits give low values
Out of some 5,500 compounds screened, about 2,000 (36%) were called active. About 18% were inconclusive and are not listed. The list shows a part of the results.
Readings of normalized growth for the listed molecules
Answer with a number only.

Example results:
Molecule: Cc1nc2ccccn2c(=O)c1CCN1CCC(C(=O)c2ccc(F)cc2)CC1
normalized growth: 0.998
--
Molecule: CC(=O)O[C@H]1CC[C@]2(C)C3=CC(=O)[C@@]4(C)C(C[C@@H]5OC6(OCC(C)CC6Br)[C@@H](C)[C@@H]54)C3CC[C@H]2C1 (some centres not stated)
normalized growth: 0.973
--
Molecule: COc1cc2c(cc1/C=C/C(=O)c1cc(OC)c(OC)cc1OC)OCO2
normalized growth: 1.01
--
Molecule: CC1(C)C(O)CC(O)C2(C)C1CC(O)C1(C)C2CCC2(C)C(c3ccoc3)OC(=O)C3OC321 (configuration not stated)
normalized growth: 1.02
--
Molecule: NS(=O)(=O)c1cc2c(cc1Cl)NC(C1CC3C=CC1C3)NS2(=O)=O (configuration not stated)
normalized growth: 0.998
--
Molecule: C=C1[C@H]2CC[C@@]3(C)[C@H](c4ccoc4)OC(=O)C[C@]13O[C@H]1C[C@H](O)C(C)(C)[C@H](CC(=O)OC)[C@]12C
normalized growth: 1.02

Now look at this entry.
Notebook: C[C@]12C=CC(=O)C=C1CCC1C3C[C@@H](O)[C@](O)(C(=O)CO)[C@@]3(C)C[C@H](O)[C@@]12F (some centres not stated) , normalized growth read as 0.984

###

Test details: chemical genetic growth profiling, strain panel (AID 1159580);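 also: tested at 20 µM; growth read once vehicle control cultures reached saturation at 30 °C; 1 = growth at the plate median or of vehicle wells; lower values mean less growth of the strain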
Run parameters: S. cerevisiae deletion strains, growth OD, locus YDR392W, strain spt3, hits give low values
About 2,000 (36%) of roughly 5,500 compounds were called active. Roughly 18% stayed inconclusive and do not appear here. Some of the results follow.
Measurement type: normalized growth
Answer with a number only.

Example results:
Molecule: CC(CCC(=O)O)[C@H]1CCC2C3C[C@H](O)[C@@H]4C[C@H](O)CC[C@]4(C)C3CC[C@@]21C (stereo partly drawn)
normalized growth: 0.88

Molecule: CN(C)N=Nc1nc[nH]c1C(N)=O
normalized growth: 0.918

Now look at this entry.
Notebook: CC(CCC(=O)O)[C@H]1CCC2C3CC[C@@H]4C[C@H](O)CC[C@]4(C)C3C[C@H](O)[C@@]21C (stereo partly drawn) , normalized growth read as 0.884

###

Readings of normalized growth for the listed compounds
Test details: chemical genetic growth profiling, strain panel (AID 1159580);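 also: tested at 20 µM; growth read once vehicle control cultures reached saturation at 30 °C; 1 = growth at the plate median or of vehicle wells; lower values mean less growth of the strain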
Run parameters: S. cerevisiae deletion strains, growth OD, locus YDR137W, strain rgp1, hits give low values
In all, about 5,500 compounds went through this assay and about 2,000 (36%) were called active. About 18% were inconclusive and are not listed. The list shows a part of the results.
Answer with a number only.

Notebook: "CCC(=O)Nc1ccc(Cl)c(Cl)c1" , normalized growth read as 1.03

Notebook: C[C@]12C=CC(=O)C=C1CCC1C3C[C@@H](O)[C@](O)(C(=O)CO)[C@@]3(C)C[C@H](O)[C@@]12F (some centres undefined) , normalized growth read as 0.965

Notebook: C[C@@H]1CC2C3CCC4=CC(=O)C=C[C@]4(C)[C@@]3(F)[C@@H](O)C[C@]2(C)[C@H]1C(=O)CO (some centres undefined) , normalized growth read as 0.979

Notebook: Cc1ncc([N+](=O)[O-])n1CC(C)O (centres undefined) , normalized growth read as 0.983

###

Test details: chemical genetic growth profiling, strain panel (AID 1159580);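 also: tested at 20 µM; growth read once vehicle control cultures reached saturation at 30 °C; 1 = growth at the plate median or of vehicle wells; lower values mean less growth of the strain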
Run parameters: S. cerevisiae deletion strains, growth OD, locus YMR263W, strain SAP30, hits give low values
Screen size: about 5,500 compounds; about 2,000 (36%) were called active. Not shown: some 18% with an inconclusive outcome. This is one part of the list.
Readings of normalized growth for the listed compounds
Answer with a number only.

Example results:
Compound: CCCCSP(=O)(SCCCC)SCCCC
normalized growth: 1.02

Compound: CC[C@H](CCC(C)[C@H]1CCC2C3CCC4C[C@@H](O)CC[C@]4(C)C3CC[C@@]21C)C(C)C (some centres not stated)
normalized growth: 1.01

Compound: Cc1nc2n(c(=O)c1CCN1CCC(c3noc4cc(F)ccc34)CC1)CCCC2
normalized growth: 1

Compound: COc1cc([C@@H]2c3cc4c(cc3[C@H](OC(C)=O)[C@H]3COC(=O)[C@@H]23)OCO4)cc(OC)c1OC
normalized growth: 1.01

Compound: CCC(=O)c1c(C)c(C)c(C)c(C)c1C
normalized growth: 0.977

Compound: COc1ccc(C(=O)C2CCNCC2)cc1
normalized growth: 1.02

Compound: COC(=O)CCC(C)[C@H]1CCC2C3C(C[C@H](O)[C@@]21C)[C@@]1(C)CC[C@@H](O)C[C@H]1C[C@H]3O (some centres not stated)
normalized growth: 1.01

Compound: CNC(=O)Oc1ccc2c(c1)[C@]1(C)CCN(C)[C@@H]1N2C
normalized growth: 1.01

Notebook: "CCCN(CCC)CCc1c[nH]c2ccc(C(N)=O)cc12" , normalized growth read as 0.988

Notebook: "C#CCN(C)CCCOc1ccc(Cl)cc1Cl" , normalized growth read as 1

Notebook: "O=C(CSc1nnc(NC(=O)c2cccc([N+](=O)[O-])c2)s1)Nc1ccc2c(c1)OCO2" , normalized growth read as 1.01

Notebook: "COc1cc(C(=O)O)c2c(c1C)OC(=O)c1c(C)cc(O)c(C=O)c1O2" , normalized growth read as 0.991
